- Measured Target: Protein in Human Serum
- Assay: protein binding in human serum; method not described
Non-standard residues stand in square brackets, D forms with d. No end group written: not given here.
Give measured % Protein Binding in Human Serum for each item. Keep answers brief.
API: value field is a number in %; no unit string.

# input Fill blank: measured % Protein Binding in Human Serum of the binder "PRRRRRRRRRRPIIRIRHYRP" is ____.
# output 89

# input Fill blank: measured % Protein Binding in Human Serum of the binder [dQ][dQ][dR][dY][dY][dW][dR] [qqryywr] is ____.
# output 82

# input Fill blank: measured % Protein Binding in Human Serum of the binder "RRRRRRRRRRPIIRIRHYP" is ____.
# output 83

# input Fill blank: measured % Protein Binding in Human Serum of the binder "PRRRRRRRRRRPITRIRFYRP" is ____.
# output 89

# input Fill blank: measured % Protein Binding in Human Serum of the binder "PRRRRRRRRRRPILRIRYWKP" is ____.
# output 98

# input Fill blank: measured % Protein Binding in Human Serum of the binder "RRRRRRRRRRPIIRIRHYR" is ____.
# output 84

# input Fill blank: measured % Protein Binding in Human Serum of the binder "RRRRRRRRRRPILTRITLE" is ____.
# output 66

# input Fill blank: measured % Protein Binding in Human Serum of the binder [dY][dQ][dW][dY][dR][dW][dQ] [yqwyrwq] is ____.
# output 98
